Just for reference, ChEMBL document CHEMBL1641414 is where these values come from.

Cytochrome P450 2D6 (Homo sapiens, UniProt P10635) measurements of pIC50, listed per entry.
Sequence (P10635 whole entry): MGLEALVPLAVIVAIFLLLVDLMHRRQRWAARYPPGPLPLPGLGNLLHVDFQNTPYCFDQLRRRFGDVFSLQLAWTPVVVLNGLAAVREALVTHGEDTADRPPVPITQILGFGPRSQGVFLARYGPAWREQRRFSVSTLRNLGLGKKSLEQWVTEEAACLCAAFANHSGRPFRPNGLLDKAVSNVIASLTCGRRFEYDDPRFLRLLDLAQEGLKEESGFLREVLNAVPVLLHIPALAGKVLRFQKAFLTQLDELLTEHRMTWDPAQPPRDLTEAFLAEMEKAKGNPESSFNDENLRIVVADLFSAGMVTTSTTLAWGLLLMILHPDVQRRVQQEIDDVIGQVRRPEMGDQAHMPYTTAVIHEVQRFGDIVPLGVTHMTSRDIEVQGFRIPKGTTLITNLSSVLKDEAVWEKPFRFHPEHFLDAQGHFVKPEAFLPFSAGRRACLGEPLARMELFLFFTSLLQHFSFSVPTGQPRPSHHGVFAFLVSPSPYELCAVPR
// returns pIC50 (minus log10 of molar concentration), number only

smilesData | pIC50
CN[C@@H]1Cc2ccccc2[C@H](c2ccc(Cl)c(Cl)c2)C1 | 7.70
NCC[C@H]1Cc2ccccc2[C@@H](c2ccc(Cl)c(Cl)c2)C1 | 4.86
CN[C@H]1Cc2ccccc2[C@H](c2ccc(Cl)c(Cl)c2)C1 | 7.17
CN[C@@H]1Cc2ccccc2[C@@H](c2ccc(Cl)c(Cl)c2)C1 | 5.94
CN[C@@H]1CCc2ccccc2[C@@H]1c1ccc(Cl)c(Cl)c1 | 7.48
CNC[C@H]1Cc2ccccc2[C@H](c2ccc(Cl)c(Cl)c2)C1 | 7.39
CNC[C@@H]1Cc2ccccc2[C@@H](c2ccc(Cl)c(Cl)c2)C1 | 6.04
CNC[C@@H]1Cc2ccccc2[C@H](c2ccc(Cl)c(Cl)c2)C1 | 6.81

INPUT: // fetch pIC50; item: CN[C@@H]1CCc2ccccc2[C@H]1c1ccc(Cl)c(Cl)c1 ; system: Cytochrome P450 2D6 (Homo sapiens, UniProt P10635)
OUTPUT: 7.24

INPUT: Fill: pIC50 (Cytochrome P450 2D6 (Homo sapiens, UniProt P10635)) for this compound CN[C@H]1Cc2ccccc2[C@@H](c2ccc(Cl)c(Cl)c2)C1
OUTPUT: 5.56

---

Measured IC50 accompanies every entry in the list below.
molecular target: Cytochrome P450 2C9 (Homo sapiens, UniProt P11712); assay: Inhibition of CYP2C9; assay type: ADME
Sequence (P11712 whole entry): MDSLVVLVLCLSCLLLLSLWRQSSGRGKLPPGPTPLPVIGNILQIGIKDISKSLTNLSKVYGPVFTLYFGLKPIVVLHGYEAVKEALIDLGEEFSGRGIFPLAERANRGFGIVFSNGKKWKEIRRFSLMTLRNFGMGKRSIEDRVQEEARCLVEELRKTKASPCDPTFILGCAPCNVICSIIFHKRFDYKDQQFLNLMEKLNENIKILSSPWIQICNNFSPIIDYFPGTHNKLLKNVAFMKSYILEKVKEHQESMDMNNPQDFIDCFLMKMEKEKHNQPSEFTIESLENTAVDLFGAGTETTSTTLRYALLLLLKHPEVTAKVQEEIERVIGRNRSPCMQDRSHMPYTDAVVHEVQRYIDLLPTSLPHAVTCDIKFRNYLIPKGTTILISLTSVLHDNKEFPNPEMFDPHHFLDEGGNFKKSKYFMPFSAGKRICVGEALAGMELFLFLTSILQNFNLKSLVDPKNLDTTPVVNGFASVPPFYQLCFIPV

Here are 3 molecules together with their reported answers.
smilesData | systemUnderTest | readoutValue
NCC[C@H]1Cc2ccccc2[C@@H](c2ccc(Cl)c(Cl)c2)C1 | Cytochrome P450 2C9 (Homo sapiens, UniProt P11712) | > 25 µM
CN[C@H]1Cc2ccccc2[C@H](c2ccc(Cl)c(Cl)c2)C1 | Cytochrome P450 2C9 (Homo sapiens, UniProt P11712) | > 25 µM
CNC[C@@H]1Cc2ccccc2[C@H](c2ccc(Cl)c(Cl)c2)C1 | Cytochrome P450 2C9 (Homo sapiens, UniProt P11712) | > 25 µM

INPUT: Using known records, supply IC50 for CN[C@@H]1Cc2ccccc2[C@@H](c2ccc(Cl)c(Cl)c2)C1
OUTPUT: > 25 µM

INPUT: Please look at this molecule and report its IC50: CN[C@@H]1Cc2ccccc2[C@H](c2ccc(Cl)c(Cl)c2)C1
OUTPUT: > 25 µM

INPUT: Item CN[C@H]1Cc2ccccc2[C@@H](c2ccc(Cl)c(Cl)c2)C1 : provide IC50
OUTPUT: > 25 µM

INPUT: Give the reported IC50 for this molecule. CN[C@@H]1CCc2ccccc2[C@@H]1c1ccc(Cl)c(Cl)c1
OUTPUT: 7.6 µM

INPUT: Read off the recorded IC50 for CNC[C@H]1Cc2ccccc2[C@H](c2ccc(Cl)c(Cl)c2)C1
OUTPUT: > 25 µM

INPUT: Read off the recorded IC50 for CN[C@H]1CCc2ccccc2[C@H]1c1ccc(Cl)c(Cl)c1
OUTPUT: > 10 µM

INPUT: State its IC50: CN[C@H]1CCc2ccccc2[C@@H]1c1ccc(Cl)c(Cl)c1
OUTPUT: > 10 µM

INPUT: # return recorded IC50 for entry CNC[C@@H]1Cc2ccccc2[C@@H](c2ccc(Cl)c(Cl)c2)C1
OUTPUT: > 25 µM

INPUT: Tell us which IC50 value is on record for CN[C@@H]1CCc2ccccc2[C@H]1c1ccc(Cl)c(Cl)c1
OUTPUT: > 10 µM

INPUT: Output IC50 of NCC[C@@H]1Cc2ccccc2[C@H](c2ccc(Cl)c(Cl)c2)C1
OUTPUT: > 25 µM

---

experiment: Ratio of drug level in whole brain to plasma of mouse at 30 mg/kg, po after 120 mins; format: ADME, organism-based; set-up: dose 30 mg/kg, route oral; settings: read-out: BPR
assayReadout: Kp at 2 h
// keep it numeric: no unit symbol after the value

INPUT: Look up Kp at 2 h of CNCCCN1c2ccccc2CCc2ccccc21 [DESIPRAMINE] and report it.
OUTPUT: 40

---

assay: Drug level in mouse plasma at 10 mg/kg, po after 120 mins; assay type: ADME, organism-based; design: dose 10 mg/kg, route oral; settings: read-out: Drug uptake
assayReadout: concentration at 2 h (ng/mL)
Expressed in ng/mL, but write only the number.

INPUT: Give the reported concentration at 2 h for this compound. CN[C@H]1Cc2ccccc2[C@@H](c2ccc(Cl)c(Cl)c2)C1
OUTPUT: 164

---

assay: Drug level in mouse plasma at 30 mg/kg, po after 120 mins; type: ADME, organism-based; set-up: dose 30 mg/kg, route oral; details: read-out: Drug uptake
assayReadout: concentration at 2 h (ng/mL)
Numbers only; they are read as ng/mL.

INPUT: Answer with reported concentration at 2 h of CN[C@H]1Cc2ccccc2[C@@H](c2ccc(Cl)c(Cl)c2)C1
OUTPUT: 344

---

Quick reference: IC50 of the listed items.
target: Sodium-dependent dopamine transporter (Homo sapiens); assay: Inhibition of [3H]dopamine reuptake at human DAT expressed in CHOK1 cells by scintillation counting
Sequence (Q01959 whole entry): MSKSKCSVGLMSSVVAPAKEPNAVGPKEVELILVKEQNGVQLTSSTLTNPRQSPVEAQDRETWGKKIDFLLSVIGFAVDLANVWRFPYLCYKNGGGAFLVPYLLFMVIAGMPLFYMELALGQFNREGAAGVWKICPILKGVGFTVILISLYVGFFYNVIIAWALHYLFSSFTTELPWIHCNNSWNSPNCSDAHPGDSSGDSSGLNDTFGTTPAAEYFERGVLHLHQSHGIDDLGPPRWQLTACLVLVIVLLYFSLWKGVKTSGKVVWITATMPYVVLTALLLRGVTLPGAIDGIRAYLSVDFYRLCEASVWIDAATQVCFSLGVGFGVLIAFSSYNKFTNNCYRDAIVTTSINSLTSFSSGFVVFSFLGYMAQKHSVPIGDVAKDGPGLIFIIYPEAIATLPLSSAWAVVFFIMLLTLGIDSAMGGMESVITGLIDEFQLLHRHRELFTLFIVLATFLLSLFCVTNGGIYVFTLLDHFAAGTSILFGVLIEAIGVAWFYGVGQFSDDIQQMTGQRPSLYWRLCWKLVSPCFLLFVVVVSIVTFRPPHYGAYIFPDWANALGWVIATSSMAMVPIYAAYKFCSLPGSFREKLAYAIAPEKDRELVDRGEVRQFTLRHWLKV
# value in nM; strip the unit string

# count of solved cases: 5
molecule | systemUnderTest | IC50 (nM)
CN[C@@H]1Cc2ccccc2[C@@H](c2ccc(Cl)c(Cl)c2)C1 | Sodium-dependent dopamine transporter (Homo sapiens) | 62
NCC[C@H]1Cc2ccccc2[C@@H](c2ccc(Cl)c(Cl)c2)C1 | Sodium-dependent dopamine transporter (Homo sapiens) | 50
CN[C@H]1CCc2ccccc2[C@@H]1c1ccc(Cl)c(Cl)c1 | Sodium-dependent dopamine transporter (Homo sapiens) | 91
CN[C@H]1CCc2ccccc2[C@H]1c1ccc(Cl)c(Cl)c1 | Sodium-dependent dopamine transporter (Homo sapiens) | 1620
CN(C)[C@@H]1Cc2ccccc2[C@@H](c2ccc(Cl)c(Cl)c2)C1 | Sodium-dependent dopamine transporter (Homo sapiens) | 176

Kindly consider the entry below.
INPUT: Under Sodium-dependent dopamine transporter (Homo sapiens), report IC50 for CN[C@@H]1CCc2ccccc2[C@@H]1c1ccc(Cl)c(Cl)c1
OUTPUT: 559

---

experiment: Plasma protein binding in mouse at 3 to 30 mg/kg, po after 120 mins; format: ADME, organism-based; design: dose 3-30 mg/kg, route oral; details: read-out: PPB
assayReadout: fraction unbound at 2 h
// response body must contain only the number

INPUT: Return value of fraction unbound at 2 h for input CN[C@H]1Cc2ccccc2[C@@H](c2ccc(Cl)c(Cl)c2)C1 , no commentary.
OUTPUT: 0.01

---

molecular target: Sodium-dependent noradrenaline transporter (Homo sapiens); assay: Inhibition of [3H]norepinephrine reuptake at human NET expressed in MDCK cells by scintillation counting
Sequence (P23975 whole entry): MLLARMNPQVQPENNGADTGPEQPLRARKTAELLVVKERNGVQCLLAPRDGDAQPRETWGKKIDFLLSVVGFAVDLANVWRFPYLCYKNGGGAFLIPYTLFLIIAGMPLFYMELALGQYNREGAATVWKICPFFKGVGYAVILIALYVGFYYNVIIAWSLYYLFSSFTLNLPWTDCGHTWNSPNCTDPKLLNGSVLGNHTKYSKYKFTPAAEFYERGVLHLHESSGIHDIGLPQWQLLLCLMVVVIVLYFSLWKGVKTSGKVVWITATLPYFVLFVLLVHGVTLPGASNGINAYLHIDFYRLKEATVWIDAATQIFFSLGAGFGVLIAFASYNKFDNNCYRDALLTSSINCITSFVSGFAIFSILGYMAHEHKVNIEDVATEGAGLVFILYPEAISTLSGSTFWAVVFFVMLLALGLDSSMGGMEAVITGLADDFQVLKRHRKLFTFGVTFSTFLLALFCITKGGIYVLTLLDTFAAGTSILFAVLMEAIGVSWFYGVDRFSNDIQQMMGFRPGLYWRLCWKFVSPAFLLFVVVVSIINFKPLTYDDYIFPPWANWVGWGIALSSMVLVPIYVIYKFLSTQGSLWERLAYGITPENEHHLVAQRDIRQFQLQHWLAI
assayReadout: pIC50
Conceptually, pIC50 converts a concentration in mol/L into minus its log10.

molecule | assayReadout | readoutValue
CN(C)C[C@H]1Cc2ccccc2[C@H](c2ccc(Cl)c(Cl)c2)C1 (mixture of isomers) | pIC50 | 6.51
CN[C@H]1CCc2ccccc2[C@@H]1c1ccc(Cl)c(Cl)c1 | pIC50 | 6.12
CNC[C@@H]1Cc2ccccc2[C@H](c2ccc(Cl)c(Cl)c2)C1 | pIC50 | 6.68
CN(C)[C@@H]1Cc2ccccc2[C@H](c2ccc(Cl)c(Cl)c2)C1 | pIC50 | 6.79
N[C@@H]1Cc2ccccc2[C@@H](c2ccc(Cl)c(Cl)c2)C1 | pIC50 | 6.14
CN(C)[C@H]1Cc2ccccc2[C@@H](c2ccc(Cl)c(Cl)c2)C1 | pIC50 | 7.01

INPUT: Identify pIC50 associated with the molecule CNC[C@@H]1Cc2ccccc2[C@@H](c2ccc(Cl)c(Cl)c2)C1
OUTPUT: 6.90

INPUT: Name the recorded pIC50 of the item N[C@@H]1Cc2ccccc2[C@H](c2ccc(Cl)c(Cl)c2)C1 in your answer.
OUTPUT: 6.07

INPUT: For the molecule CN[C@@H]1CCc2ccccc2[C@@H]1c1ccc(Cl)c(Cl)c1 , give its reported pIC50.
OUTPUT: 6.95

INPUT: Output pIC50 of CN[C@H]1CCc2ccccc2[C@H]1c1ccc(Cl)c(Cl)c1
OUTPUT: 5.14

INPUT: Return pIC50 (reported value) for this molecule: N[C@H]1Cc2ccccc2[C@@H](c2ccc(Cl)c(Cl)c2)C1
OUTPUT: 6.76

INPUT: Write down pIC50 measured for item CNC[C@H]1Cc2ccccc2[C@@H](c2ccc(Cl)c(Cl)c2)C1
OUTPUT: 6.43

INPUT: Item CN[C@@H]1CCc2ccccc2[C@H]1c1ccc(Cl)c(Cl)c1 : provide pIC50
OUTPUT: 5.78

INPUT: Provide pIC50 value for the following molecule: CN(C)C[C@@H]1Cc2ccccc2[C@H](c2ccc(Cl)c(Cl)c2)C1 (racemic)
OUTPUT: 6.25

INPUT: For the molecule CN(C)[C@@H]1Cc2ccccc2[C@@H](c2ccc(Cl)c(Cl)c2)C1 , report pIC50.
OUTPUT: 6.76
